# tested-on: Bcl-xL (GST-Bcl-xL) (Homo sapiens)
# Sequence (Q07817 whole entry, species assumed): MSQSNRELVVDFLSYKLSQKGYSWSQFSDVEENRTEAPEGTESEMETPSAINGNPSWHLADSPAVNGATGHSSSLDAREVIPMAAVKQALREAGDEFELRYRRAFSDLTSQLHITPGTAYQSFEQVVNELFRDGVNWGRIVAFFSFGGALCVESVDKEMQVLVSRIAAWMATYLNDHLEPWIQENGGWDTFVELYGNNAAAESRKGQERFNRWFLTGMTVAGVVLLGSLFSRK
# experiment-summary: TR-FRET binding assay, competition with F-Bak for the Bcl-xL binding site
# experimental-conditions: with 1% human serum (HS)
measured-parameter: pKi
Quick note: pKi values are minus log10 of concentrations in mol/L.

# compound, pKi
rows = [
    ("CN(C)CCCc1ccc(OCCCc2sc(N3CCc4cccc(C(=O)Nc5nc6ccccc6s5)c4C3)nc2C(=O)O)c(F)c1 [Example 103]", 11.22),
]

Ask | Fill blank: measured pKi of the compound CN(C)CC#Cc1ccc(OCCCc2sc(N3CCc4cccc(C(=O)Nc5nc6ccccc6s5)c4C3)nc2C(=O)O)cn1 [Example 57] is ____.
Reply | 10.15

Where do the numbers come from? From patent US8232273B2.
